Reference source: the EternaBench riboswitch data

// apparent Kd lookup, one value per entry
test system: MS2 coat protein; experiment: apparent Kd, MS2 coat protein; higher = weaker binding; RNA-MaP array; FMN 200 µM where present; settings: designed as: OFF switch for flavin mononucleotide; no ligand
Readout label: apparent Kd (nM)

Primary sequence	Readout label	Value
GGGAUAGGAGGAUAUGUUCUAGCUCACAUGAGGAUCACCCAUGUGGUGUCCGUUGGUAGCGCAGAAGGCUUACCUA	apparent Kd	792
AACACUUAAAAGUGAGGCGAUAGGUAGGAUAUACAUGAGGAUCACCCAUGUAUGGGCUAUCUGCGGUAGAAGGACCUCUGGCCC	apparent Kd	6.44
GACGGUGAUGUAGGAUAUACGCUGGAAUACAGCGUAGAAGGACAUGAGGAUCACCCAUGUAGAGUGUCUCCAAAUAACACCGUC	apparent Kd	43.5
CACGUACAUGAGGAUCACCCAUGUUAGGAUAUGUUUACCGGAAGGCAUUCUUGGGUAAACAGAAGGGACGAAAC	apparent Kd	22.5
CCAUAAAAGAUCCAAAAUUACAACAUGAGGAUCACCCAUGUGCAGGAUAUCGUGAAAGUAAAAUACGAGAAGGGCAAACACUGC	apparent Kd	365
UCAUGGAAGUAGAAGGGUAAUAUAUUAGAUUUUACUAUUAGAUGUAGAUAUACAGGAUAUGCGAACAUGAGGAUCACCCAUGUG	apparent Kd	62.7
UAGCUCUCGGCAGGAUAUCCUGCAUAAUGUCGAGUCCGCGCCCGGACAUGAGGAUCACCCAUGUAGGAGAAGGGCCCACGGGCU	apparent Kd	24.2

----------
test system: MS2 coat protein; test: apparent Kd, MS2 coat protein; higher = weaker binding; RNA-MaP array; FMN 200 µM where present; settings: ligand present: flavin mononucleotide; designed as: OFF switch for flavin mononucleotide

Primary sequence	Unit string	apparent Kd
CCCGGUCUGGAGGAUAUUAUAGAGCGUGCUUAAUAAGAAGGUCAGACAUGAGGAUCACCCAUGUUCUUACCCGG	nM	53.8
UGGUGUGAAUAGGAUAUGAACUCUGCCAGGAUAUCAGAAGGGUUUACAUGAGGAUCACCCAUGUCAUCCACUGC	nM	18.9
UUAAAACGUGUGAGGAUAUCGAGAGUAGCUGAUCUCGAGAAGGCACAUGAGGAUCACCCAUGUGGCCUGCACCG	nM	14.7
AACCGACAUGAGGAUCACCCAUGUCAGGAUAUGGACUGACACCGAAAGAGUGGAGGAACCAGAAGGGACUGGGC	nM	69.5
UUCUUUGUUGUGAGGAUAUCGUAUUCUUUUUGUUACGAGAAGGCACAUGAGGAUCACCCAUGUUUCUUGAUGUU	nM	45.8
CUGUUCCGUGUAGGAUAUGCAUAUUCCCAUUAUGCAGAAGGACAUGAGGAUCACCCAUGUAUGUUAUUAUCAUGUGUUACAUGC	nM	453
GCACUGGAUGUAGGAUAUCAGGACGAUAAGUCCUGAGAAGGACAUGAGGAUCACCCAUGUGCUCAAUAACCAGUGCAUAAUAUA	nM	20.3
UGACGGAGCUGAGGAUAUACAUGAGGAUCACCCAUGUAAGAUCUCCAGGAAACUGGAGAUCAAAAGUAGAAGGCAGCUCCGUCA	nM	23.4
GUCAGCUCGUGAGGAUAUACAUGUGCUGGAGACAGCAUUAUAUUUUUCACAUGAGGAUCACCCAUGUAGAAGGCACGAGCUGAU	nM	27.4
AAUAUGUUGCAGAAGGCUAUGUUGUGGUAGUACCUCAUGACAUGAGGAUCACCCAUGUUUGUGUUGGAGGAUAUGCAAUAUAUU	nM	40.6
UUUUAACAUGAGGAUCACCCAUGUGAGGAUAUCGAAAUUUAUAUUAAUAUUAUUUAUUCGAGAAGGCACAUUUU	nM	145
GGGAUAGGAGGAUAUGUUCUAGCUCACAUGAGGAUCACCCAUGUGGUGUCCGUUGGUAGCGCAGAAGGCUUACCUA	nM	662
UGUUGUUCAGGAUAUGAUGUUUUAUACAUGAGGAUCACCCAUGUGGGUCCUGAUUUGGCGUCAGAAGGGAAUGUUG	nM	222
CAUUAAUUCAUUAUAGUUAUUAUACAGGAUAUGUUACAUGAGGAUCACCCAUGUAUUCAUGGUAAACAGAAGGGUAAUACUCGU	nM	45.9
UAAGUAAGUGCAGGAUAUUUAAGAAGAACAUGAGGAUCACCCAUGUGAGGAUCACCCAUGUAAAAGGAGAAGGGCAGAGUAUGA	nM	1220
